Target: 15-hydroxyprostaglandin dehydrogenase [NAD(+)] (Homo sapiens, UniProt P15428)
Sequence (P15428 whole entry): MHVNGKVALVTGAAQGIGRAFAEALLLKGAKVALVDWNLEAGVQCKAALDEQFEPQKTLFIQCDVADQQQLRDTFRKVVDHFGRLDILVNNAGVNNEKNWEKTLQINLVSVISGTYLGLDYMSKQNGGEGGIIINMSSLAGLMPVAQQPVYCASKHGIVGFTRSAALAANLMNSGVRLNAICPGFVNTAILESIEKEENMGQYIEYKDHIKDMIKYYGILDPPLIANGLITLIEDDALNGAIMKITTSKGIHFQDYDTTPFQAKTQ
Experiment: Stability of the compound assessed as prostaglandin 15-hydroxydehydrogenase (unknown origin)-mediated metabolite formation
Type: ADME
Observable: Stability

Known Stability results, listed for orientation:
q: Query (compound): CCCCCC(C)(O)CCCC(CCCCCCC(=O)O)C(C)=O (configuration not stated) ; field requested: Stability
a: Stable

q: Query (compound): CCCCCC(O)CCCC(CCCCCCC(=O)O)C(C)=O (mixture of isomers) ; field requested: Stability
a: Stable

q: Query (compound): CCCCC(O)CCCCC(CCCCCCC(=O)O)C(C)=O (configuration not stated) ; field requested: Stability
a: Stable

q: Query (compound): CCCCC[C@H](O)C#CCC(CCCCCCC(=O)O)C(C)=O (some centres not stated) ; field requested: Stability
a: Stable

q: Query (compound): CCCCCC(=O)CCCC(CCCCCCC(=O)O)C(C)=O (configuration not stated) ; field requested: Stability
a: Stable

---
q: Query (compound): CCCCC[C@@H](O)CCCC(CCCCCCC(=O)O)C(C)=O (some centres not stated) ; field requested: Stability
a: Stable

q: Query (compound): CCCC(O)CCCCCC(CCCCCCC(=O)O)C(C)=O (configuration not stated) ; field requested: Stability
a: Stable

q: Query (compound): CC(=O)C(CCCCO)CCCCCCC(=O)O (configuration not stated) ; field requested: Stability
a: Stable

q: Query (compound): CCCCCC(O)CCCC(CCCCCCC(=O)O)C(C)O (configuration not stated) ; field requested: Stability
a: Stable

q: Query (compound): CCCCCC(O)/C=C/CC(CCCCCCC(=O)O)C(C)=O (configuration not stated) ; field requested: Stability
a: Stable

q: Query (compound): CCCCCC(O)CCCC(CO)CCCCCCC(=O)O (configuration not stated) ; field requested: Stability
a: Stable

q: Query (compound): CCCCCCC(O)CCC(CCCCCCC(=O)O)C(C)=O (configuration not stated) ; field requested: Stability
a: Stable
